# System: SK-MEL-2
# test method notes: NCI tumour cell line growth inhibition, 48 h
The source made the active and inactive calls. Cut-off read from the data, not from the text of the source: active = GI50 up to about 1.1 µM and inactive = higher.
In this exercise, the only acceptable responses are True (active), False (inactive)

Request: Hi, do you know how O=C(COc1ccc(OCC(=O)N2C(=O)CC(=O)N(c3ccc(Cl)cc3)C2=S)cc1)N1C(=O)CC(=O)N(c2ccc(Cl)cc2)C1=S came out in this test?
Response: False

Request: What call does the record list for CC[N+]1(C)CCC(O)(/C=C/c2ccc(OC)cc2)C(C(=O)/C=C/c2ccc(OC)cc2)C1 (stereo unspecified) ?
Response: False

Request: Record request — test call for COc1ccc(-c2cc(C(O)C3CCCCN3)c3ccccc3n2)cc1 (stereo unspecified)
Response: False

Request: Record request — test call for COc1cccc(/C=N/NC(=O)CSCC(=O)N/N=C/c2cccc(OC)c2OC)c1OC
Response: False

Request: Please let me know the test result on file for Cc1ccc(N2C(=O)CC(=O)N(NC(=O)C(C)Oc3ccccc3C)C2=S)cc1 (stereo unspecified) .
Response: False

Request: Hello, I am checking results. What call was entered for COc1ccc(-c2cc(=O)c3ccccc3o2)cc1N ?
Response: False

Request: Record request — test call for CC1=NN(c2nc(N)nc(CSc3nc4n(c(=S)n3)CCN4)n2)C(C)(C)C1
Response: False

Request: Any idea what this test logged for NS(=O)(=O)c1ccc(NCc2nc3ccccc3[nH]2)cc1 ?
Response: False

Request: Dear all, I need the recorded test outcome for O=C1CNC(=O)/C(=C/c2c[nH]c3ccccc23)N1 , thank you.
Response: False

Request: Entry C[C@]12CC[C@H](O)CC1=CC[C@@H]1C2CC[C@]2(C)NC(=O)C(C#N)CC12 (stereo partly specified) : call = ?
Response: False

Request: Outcome? Clc1cc2nc[nH]c2cc1Cl
Response: False

Request: // outcome(item) with item = Cc1cc(Cl)ccc1N1C(=O)C(=O)C(c2nc3ccccc3o2)C(=O)C1=O
Response: False

Request: Hi, sorry to bother you, what did the test record for O=C(O)CCSC(=O)Nc1ccccc1 ?
Response: False

Request: Recorded test outcome, item c1ccc(CC(Nc2cccnc2)c2ccccc2)cc1 (stereo unspecified)
Response: False

Request: For O=C(c1ccccc1)c1ccc2nc3n(c2c1)C(c1c(F)cccc1F)SC3 (stereo unspecified) , which call appears in the assay record?
Response: False

Request: I would be grateful if you could indicate the recorded call for CC(C)=CC(=O)O[C@@H]1CC(C)(C)CC2C3=CCC4[C@]56CC[C@](O)(OC5)C(C)(C)C6CC[C@@]4(C)C3(C)CC[C@]21C(=O)O (stereo partly specified) .
Response: False

Request: Returns: the outcome recorded for COC(=O)CN(CC(O)C(NC(C)=O)C(O)C=O)C(=O)OCc1ccccc1 (stereo unspecified) in this assay.
Response: False

Request: Hi, do you know how CC(C)(C)C(=O)C(c1ccc(-c2cscn2)cc1)c1ccc(-c2cscn2)cc1 came out in this test?
Response: False

Request: Please share the test call associated with C=C(Cl)C(Cl)(CBr)CCC(Cl)C(C)(C)Cl (stereo unspecified) .
Response: True

Request: Status in this test for COC(=O)C(Cc1nc2ccccc2nc1O)C(=O)C(=O)Nc1cc(C(F)(F)F)ccc1Cl (stereo unspecified) ?
Response: False

Request: How did this test come out for CC1CCCc2c1c1ccc3c(O)cccc3c1oc2=O (stereo unspecified) ?
Response: False

---

# Test system: NCI-H522
# test method notes: NCI tumour cell line growth inhibition, 48 h
Calls of active or inactive are those of the source. Cut-off read from the data, not from the text of the source: active = GI50 up to about 1.1 µM and inactive = higher.
measured metric: GI50

Request: Quick one: GI50 for COc1ccc(CNc2nc(NC3CCCCC3)nc(NC3CCCCC3)n2)cc1 ?
Response: 4.31 µM (inactive)

Request: What value of GI50 has been reported for the following molecule? CC(=O)OC(C(=O)NNC(=O)OC(C)(C)C)c1ccccc1 (stereo unspecified)
Response: > 100 µM (inactive)

Request: Need GI50 of CCOC(=O)CCC(C(=O)OCC)n1nc2ccc(Nc3c(C)[n+]([O-])c4ccc(Cl)cc4[n+]3[O-])cc2n1 (stereo unspecified) , thanks.
Response: 30.1 µM (inactive)

Request: For the molecule CNc1ncnc2c1cnn2Cc1cn(CCCCO)nn1 , what GI50 is on record?
Response: > 100 µM (inactive)

Request: Any idea what GI50 was measured for CN(CC(=O)O)S(=O)(=O)c1ccc(F)cc1 ?
Response: > 100 µM (inactive)

Request: Value lookup for GI50; key = CC1(C)CCCC2OC2CCC(C)(C)C1=O (stereo unspecified)
Response: > 100 µM (inactive)

---

# Tested on: XF498
# test method notes: NCI tumour cell line growth inhibition, 48 h
Calls of active or inactive are those of the source. Cut-off read from the data, not from the text of the source: active = GI50 up to about 1.1 µM and inactive = higher.
Hi! Could you answer with just one of these? active, inactive

Request: What was the test verdict on COc1ccc(-c2cc(=O)c3ccccc3o2)cc1N ?
Response: inactive

Request: Tell me the recorded outcome of this test for Cc1ccc(NC(=O)CC2Sc3ccccc3NC2=O)c(C)c1 (configuration not stated) .
Response: inactive

Request: How did this test come out for CCCCCCCCCCCCCC(=O)CSCCNC(=O)CCNC(=O)[C@@H](O)C(C)(C)COP(=O)(O)OP(=O)(O)OCC1OC(n2cnc3c(N)ncnc32)C(O)C1OP(=O)(O)O (some centres not stated) ?
Response: inactive

Request: In this assay, the call recorded for COC(=O)N/N=C(/Cc1occc(=O)c1O)C(=O)Nc1ccc([N+](=O)[O-])cc1[N+](=O)[O-] was what?
Response: inactive

Request: Which result was noted for this molecule in the test: COc1cc(O)c2c(c1)O[C@@H]1OCC[C@H]21
Response: inactive

Request: Please state the recorded outcome for this molecule: COc1ccc2oc(-c3cc4cc(OC)ccc4o3)cc2c1
Response: inactive

Request: Which outcome was assigned to COc1cc(C(C)c2cc3c(cc2OCCO)OCO3)cc(OC)c1OC (configuration not stated) in this test?
Response: active

Request: Any idea what this test logged for Cc1ccc(Cl)c(NC(=O)C(=O)C(C(=O)c2ccncc2)C2OC(=O)c3ccccc32)c1 (configuration not stated) ?
Response: inactive

Request: Query: recorded result category for CC(C)(C)c1ccc(Oc2ccc(C#N)c(C#N)c2)c(C(C)(C)C)c1 in this test
Response: inactive

Request: Which outcome was assigned to COc1ccc(O)c2c(=O)ccccc12 in this test?
Response: inactive

Request: Look up the recorded call for O=C1CCNC/C1=C\c1ccccc1 in this test.
Response: inactive

Request: Recorded call for O=C1C2C(C(=O)N1OS(=O)(=O)c1ccccc1)N(Cc1ccccc1)C(=O)N2Cc1ccccc1 (configuration not stated) ?
Response: inactive

Request: Please share the test call associated with CC(C)(C)C(=O)C(c1ccc(-c2cscn2)cc1)c1ccc(-c2cscn2)cc1 .
Response: inactive

Request: What classification did O=C(c1cc(O)ccc1O)c1ccccc1C(Cl)(Cl)Cl end up with in this test?
Response: inactive

Request: For CC(=O)N(CCN1C(=O)c2ccccc2C1=O)CCN1C(=O)c2ccccc2C1=O , what call appears in the results of this test?
Response: inactive

Request: Hi team, can someone confirm the assay call for CC1CCCc2c1c1ccc3c(O)cccc3c1oc2=O (configuration not stated) ?
Response: inactive

Request: Tell me the recorded outcome of this test for CC(=O)/C(C)=N/NC(=O)c1ccccc1O .
Response: inactive

Request: Which outcome did this test record for the molecule CCC1CN2CCC1CC2 (configuration not stated) ?
Response: inactive

Request: Dear all, I need the recorded test outcome for CCCCC(C(=O)CCC(=O)Nc1ccc(Cl)cc1)C(=O)C(C)C (configuration not stated) , thank you.
Response: inactive

Request: Which outcome did this test record for the molecule O=C1OC(c2ccccc2)C2CC3CC4(CCC3CN12)OCCO4 (configuration not stated) ?
Response: inactive

Request: For CCOC(=O)NC(=O)c1cn(C2CCCCC2)c(=O)[nH]c1=O , which call appears in the assay record?
Response: inactive

Request: # outcome recorded in this test, key = COc1c(Cl)cc(S(=O)O)cc1Cl
Response: inactive

Request: Outcome? CCCNCc1nc2ccc(Br)cc2c(=O)n1CCC
Response: inactive

Request: Fill in: this test's call for CCCCCCCCC[C@@H]1C[C@H](O)[C@H](Cc2ccccc2)N1C(=O)OC(C)(C)C is ___
Response: inactive

Request: # fetch the recorded call for COc1cc2c[n+]3ccc4cc(OC)c(OC)cc4c3cc2cc1O here
Response: inactive

Request: // return assay outcome for COc1cc(/C=N/c2nncs2)ccc1O
Response: inactive

Request: What classification did OCC(O)C(O)C(O)c1nn(-c2ccc(Cl)cc2)c2nc3cc(Cl)c(Cl)cc3nc12 (configuration not stated) end up with in this test?
Response: inactive
